Procedure Text: Pharmacokinetics assay in rats after intragastric administration
Assay type: in vivo
Condition Context: both sexes, Sprague-Dawley, rat, plasma, po, SD rats, 5 mg/Kg, read-out: Plasma Conc. Cmax
Assay Metric: Cmax (ng/mL)

A = CC1=NN(c2ccc(C)c(C)c2)C(=O)/C1=N\Nc1cccc(-c2cccc(C(=O)O)c2)c1O [Eltrombopag, eltrombopag, reference compound]
B = CC1=NN(c2ccc3c(c2)CCC3)C(=O)/C1=N\Nc1cccc(-c2cccc(C(=O)O)c2)c1O
Which is greater in Cmax, the first item A or the second item B ? Write down the label attached to your selection.
B
(B: 29000 ng/mL, A: 8470 ng/mL)

I = CC1=NN(c2ccc3c(c2)CCC3)C(=O)/C1=N\Nc1cc(C)cc(-c2cccc(C(=O)O)c2)c1O
II = CC1=NN(c2ccc3c(c2)CCCC3)C(=O)/C1=N\Nc1cccc(-c2ccc(C(=O)O)o2)c1O
Which is greater in Cmax, the first item I or the second item II ? Write down the label attached to your selection.
I

====

Procedure Text: Pharmacokinetics assay in rats after intragastric administration
Type: in vivo
Condition Context: both sexes, Sprague-Dawley, rat, plasma, po, SD rats, 5 mg/Kg, read-out: Half-Life t½ (converted)
Assay Metric: half-life (h)

Known results for compounds:
[[record]]
compound = "CC1=NN(c2ccc3c(c2)CCCC3)C(=O)/C1=N\\Nc1cccc(-c2ccc(C(=O)O)o2)c1O [Example 15]"
assay_metric = "half-life"
measured_result = 3.47

[[record]]
compound = "CC1=NN(c2ccc3c(c2)CCC3)C(=O)/C1=N\\Nc1cccc(-c2cccc(C(=O)O)c2)c1O [Example 1]"
assay_metric = "half-life"
measured_result = 5.39


I = CC1=NN(c2ccc3c(c2)CCC3)C(=O)/C1=N\Nc1cc(C)cc(-c2cccc(C(=O)O)c2)c1O [Example 29]
II = CC1=NN(c2ccc(C)c(C)c2)C(=O)/C1=N\Nc1cccc(-c2cccc(C(=O)O)c2)c1O [Eltrombopag, eltrombopag, reference compound]
Which is greater in half-life, the first item I or the second item II ? Write down the label attached to your selection.
II

====

Procedure Text: Pharmacokinetics assay in rats after intragastric administration
Format: in vivo
Condition Context: both sexes, Sprague-Dawley, rat, plasma, po, SD rats, 5 mg/Kg, read-out: Apparent Distribution Volume Vz/F
Assay Metric: Vd/F (L/kg)

[[record]]
molecule = "CC1=NN(c2ccc3c(c2)CCC3)C(=O)/C1=N\\Nc1cc(C)cc(-c2cccc(C(=O)O)c2)c1O"
assay_metric = "Vd/F"
unit_info = "L/kg"
measured_result = 0.77

[[record]]
molecule = "CC1=NN(c2ccc3c(c2)CCCC3)C(=O)/C1=N\\Nc1cccc(-c2ccc(C(=O)O)o2)c1O"
assay_metric = "Vd/F"
unit_info = "L/kg"
measured_result = 1.36


P = CC1=NN(c2ccc(C)c(C)c2)C(=O)/C1=N\Nc1cccc(-c2cccc(C(=O)O)c2)c1O [Eltrombopag, eltrombopag, reference compound]
Q = CC1=NN(c2ccc3c(c2)CCC3)C(=O)/C1=N\Nc1cccc(-c2cccc(C(=O)O)c2)c1O
Decide: P or Q , by lowest recorded Vd/F. Write down the label attached to your selection.
Q

====

Measured On: human TPO receptor (Homo sapiens, UniProt P40238)
Sequence (P40238 26-635): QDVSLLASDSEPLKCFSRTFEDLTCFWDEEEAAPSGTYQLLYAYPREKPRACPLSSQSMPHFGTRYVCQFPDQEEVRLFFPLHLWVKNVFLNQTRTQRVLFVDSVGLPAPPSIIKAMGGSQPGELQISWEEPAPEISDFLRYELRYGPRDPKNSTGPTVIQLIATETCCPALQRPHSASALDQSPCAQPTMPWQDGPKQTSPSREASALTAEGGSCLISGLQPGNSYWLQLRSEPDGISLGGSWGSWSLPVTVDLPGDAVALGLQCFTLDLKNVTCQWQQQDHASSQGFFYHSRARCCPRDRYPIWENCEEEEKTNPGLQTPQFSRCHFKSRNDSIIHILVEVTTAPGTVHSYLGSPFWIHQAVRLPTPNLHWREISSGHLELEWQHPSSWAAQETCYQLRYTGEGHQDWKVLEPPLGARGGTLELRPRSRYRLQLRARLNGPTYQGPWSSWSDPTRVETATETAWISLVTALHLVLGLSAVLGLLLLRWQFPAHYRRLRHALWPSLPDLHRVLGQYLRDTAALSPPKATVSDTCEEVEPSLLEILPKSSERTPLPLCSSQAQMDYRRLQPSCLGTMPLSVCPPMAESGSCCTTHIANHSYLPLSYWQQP
Procedure Text: pro-proliferation effect on BAF3-TPOR cell (CCK-8)
Condition Context: BAF3-TPOR cells, proliferation relative to rhTPO positive control
pEC50: −log10 of the molar value.
Assay Metric: pEC50

[[record]]
compound = "CC1=NN(c2ccc3c(c2)CCO3)C(=O)/C1=N\\Nc1cccc(-c2cccc(C(=O)O)c2)c1O"
measured_result = 6.58

[[record]]
compound = "CC1=NN(c2ccc3c(c2)C(C)(C)CC3(C)C)C(=O)/C1=N\\Nc1cc(C)cc(-c2cccc(C(=O)O)c2)c1O"
measured_result = 7.05

[[record]]
compound = "CC1=NN(c2ccc3c(c2)CCC3)C(=O)/C1=N\\Nc1cc(C)cc(-c2ccc(C(=O)O)o2)c1O"
measured_result = 7.25

[[record]]
compound = "CC1=NN(c2ccc3c(c2)CC3)C(=O)/C1=N\\Nc1cccc(-c2ccc(C(=O)O)s2)c1O"
measured_result = 7.05

[[record]]
compound = "CC1=NN(c2ccc(C)c(C)c2)C(=O)/C1=N\\Nc1cccc(-c2cccc(C(=O)O)c2)c1O [Eltrombopag, eltrombopag, reference compound]"
measured_result = 6.52


P = CC1=NN(c2ccc3c(c2)C(C)(C)CC3)C(=O)/C1=N\Nc1cc(C)cc(-c2cccc(C(=O)O)c2)c1O
Q = CC1=NN(c2ccc3c(c2)CCCC3)C(=O)/C1=N\Nc1cccc(-c2csc(C(=O)O)c2)c1O
Which is greater in pEC50, the first item P or the second item Q ? Write down the label attached to your selection.
Q

Recorded values, source patent US8367710B2.
